Target: T1, pig CD47 (pig, UniProt Q9GKE8 19-303)
T1 construct: whole, on cells; also called CD47 on pig red blood cells
T1 sequence (looked up): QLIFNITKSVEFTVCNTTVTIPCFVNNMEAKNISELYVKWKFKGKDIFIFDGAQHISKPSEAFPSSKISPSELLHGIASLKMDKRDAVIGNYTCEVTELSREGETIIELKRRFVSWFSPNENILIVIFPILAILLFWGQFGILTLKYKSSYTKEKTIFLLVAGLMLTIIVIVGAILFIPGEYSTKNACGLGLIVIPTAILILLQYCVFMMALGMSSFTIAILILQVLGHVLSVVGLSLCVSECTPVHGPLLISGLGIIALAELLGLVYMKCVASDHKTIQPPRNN
Assay: flow cytometry on RBCs, antibody 10 ng/ml
Measured endpoint: mean fluorescence relative to chimeric antibody

# input binder: pVxK7b-037-hum19-LC/pVxK7b-037-hum19-HC (antibody, human IgG1, V domains shown, Full-length human IgG1/kappa in CHO supernatant; Variable entries end within framework 4 (...FGQG / ...WGQG); also called Clone 19) VH: EVQLVQSGAEVKKPGESLRISCKGSGYTFTNYYVFWIRQSPSRGLEWLGDINPVNGDTNFNEKFKNRVTITADKSTSTAYMELSSLRSEDTAVYYCARGGYTMDYWGQG VL: DVVMTQSPLSLPVTLGQPASISCRSSQSLVHSNGNTYLHWYQQKPGKAPKLLIYKVSYRFSGVPDRFSGSGSGTDFTLKISRVEAEDVGVYYCSQNTHVPRTFGQG ; wanted: its mean fluorescence relative to chimeric antibody
1.3 fold of chimera

# input binder: pVxK7b-037-hum09-LC/pVxK7b-037-hum09-HC (antibody, human IgG1, V domains shown, Full-length human IgG1/kappa in CHO supernatant; Variable entries end within framework 4 (...FGQG / ...WGQG); also called Clone 9) VH: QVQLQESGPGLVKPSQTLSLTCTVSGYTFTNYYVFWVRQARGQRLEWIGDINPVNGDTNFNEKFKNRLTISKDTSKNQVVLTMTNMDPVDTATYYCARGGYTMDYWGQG VL: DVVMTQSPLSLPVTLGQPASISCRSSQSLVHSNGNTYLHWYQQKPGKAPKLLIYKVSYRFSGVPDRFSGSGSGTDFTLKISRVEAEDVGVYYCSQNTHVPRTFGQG ; wanted: its mean fluorescence relative to chimeric antibody
1.6 fold of chimera

# input binder: pVxK7b-037-hum23-LC/pVxK7b-037-hum23-HC (antibody, human IgG1, V domains shown, Full-length human IgG1/kappa in CHO supernatant; Variable entries end within framework 4 (...FGQG / ...WGQG); also called Clone 23) VH: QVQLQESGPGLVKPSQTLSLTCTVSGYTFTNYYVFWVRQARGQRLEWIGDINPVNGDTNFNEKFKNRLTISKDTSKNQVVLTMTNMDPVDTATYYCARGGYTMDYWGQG VL: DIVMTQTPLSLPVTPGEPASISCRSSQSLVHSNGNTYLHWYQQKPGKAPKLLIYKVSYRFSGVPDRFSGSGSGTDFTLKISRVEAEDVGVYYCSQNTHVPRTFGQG ; wanted: its mean fluorescence relative to chimeric antibody
1.7 fold of chimera

# input binder: pVxK7b-037-hum11-LC/pVxK7b-037-hum11-HC (antibody, human IgG1, V domains shown, Full-length human IgG1/kappa in CHO supernatant; Variable entries end within framework 4 (...FGQG / ...WGQG); also called Clone 11) VH: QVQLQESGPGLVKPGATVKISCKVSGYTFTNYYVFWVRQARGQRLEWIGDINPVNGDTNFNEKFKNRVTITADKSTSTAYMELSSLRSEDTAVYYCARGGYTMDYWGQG VL: EIVLTQSPATLSVSPGERATLSCRSSQSLVHSNGNTYLHWYQQKPGQAPRLLIYKVSYRFSGVPSRFSGSGSGTDFTFTISSLEAEDAATYYCSQNTHVPRTFGQG ; wanted: its mean fluorescence relative to chimeric antibody
1.2 fold of chimera

# input binder: pVxK7b-037-hum18-LC/pVxK7b-037-hum18-HC (antibody, human IgG1, V domains shown, Full-length human IgG1/kappa in CHO supernatant; Variable entries end within framework 4 (...FGQG / ...WGQG); also called Clone 18) VH: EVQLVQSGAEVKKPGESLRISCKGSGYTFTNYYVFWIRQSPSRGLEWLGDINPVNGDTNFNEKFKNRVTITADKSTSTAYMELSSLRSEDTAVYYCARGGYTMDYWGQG VL: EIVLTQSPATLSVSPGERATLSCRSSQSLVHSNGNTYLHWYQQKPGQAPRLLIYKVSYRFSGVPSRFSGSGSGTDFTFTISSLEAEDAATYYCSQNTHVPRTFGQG ; wanted: its mean fluorescence relative to chimeric antibody
1.2 fold of chimera
